Molecular target: UniProtKB P08684
Sequence (P08684 whole entry): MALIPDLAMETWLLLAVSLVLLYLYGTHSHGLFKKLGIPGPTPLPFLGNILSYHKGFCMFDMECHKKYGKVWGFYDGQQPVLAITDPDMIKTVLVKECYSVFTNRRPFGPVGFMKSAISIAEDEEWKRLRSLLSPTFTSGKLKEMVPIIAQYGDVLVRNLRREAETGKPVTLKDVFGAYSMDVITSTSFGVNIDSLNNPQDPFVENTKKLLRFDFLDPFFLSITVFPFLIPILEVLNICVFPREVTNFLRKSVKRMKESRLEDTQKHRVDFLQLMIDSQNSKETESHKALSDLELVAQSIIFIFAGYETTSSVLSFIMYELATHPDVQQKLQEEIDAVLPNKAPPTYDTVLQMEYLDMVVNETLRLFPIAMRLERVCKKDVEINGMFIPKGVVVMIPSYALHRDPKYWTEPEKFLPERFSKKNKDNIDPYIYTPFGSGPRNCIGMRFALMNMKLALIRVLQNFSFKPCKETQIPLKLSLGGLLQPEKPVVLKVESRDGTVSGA
Assay: Inhibition of CYP3A4 in human liver microsomes using testosterone as substrate assessed as residual activity at 10 uM preincubated for 30 mins followed by substrate addition measured after 10 mins in presence of NADPH by LC-MS/MS analysis
Format: ADME
Conditions: probe testosterone, read-out: Activity
Would you mind telling me the reported activity at 10 min, 10 µM of each entry?
Answer in %, number only, no unit symbol.

Inquiry: State, in one line, measured activity at 10 min, 10 µM of CS(=O)(=O)O.CS(=O)(=O)O.Cc1cc(OCC(O)CN2CCN(c3ccc(Cc4ccc(F)cc4)cc3)CC2)c(C)c(C)c1N (configuration not stated)
Reply text: 57

Inquiry: State, in one line, measured activity at 10 min, 10 µM of Cl.Fc1ccc(Cc2ccc(N3CCN(CCCOc4ccc5ncccc5c4)CC3)cc2)cc1
Reply text: 94

Inquiry: State, in one line, measured activity at 10 min, 10 µM of Cl.Cl.Cl.Fc1ccc(Cc2ccc(N3CCN(CC(F)COc4ccncc4)CC3)cc2)cc1 (configuration not stated)
Reply text: 101

Inquiry: State, in one line, measured activity at 10 min, 10 µM of Cc1cc(C)c(C)c(OCC(F)CN2CCN(c3ccc(Cc4ccc(F)cc4)cc3)CC2)c1.Cl.Cl (configuration not stated)
Reply text: 107

Inquiry: State, in one line, measured activity at 10 min, 10 µM of NS(=O)(=O)c1ccc(OCC(F)CN2CCN(c3ccc(Cc4ccc(F)cc4)cc3)CC2)cc1 (configuration not stated)
Reply text: 99

Inquiry: State, in one line, measured activity at 10 min, 10 µM of Cc1cc(OC[C@@H](F)CN2CCN(c3ccc(Cc4ccc(F)cc4)cc3)CC2)cc(C)n1.Cl
Reply text: 80

Inquiry: State, in one line, measured activity at 10 min, 10 µM of Cc1cc(OC[C@H](F)CN2CCN(c3ccc(Cc4ccc(F)cc4)cc3)CC2)cc(C)n1.Cl
Reply text: 83

Inquiry: State, in one line, measured activity at 10 min, 10 µM of OC(COc1ccc2ncccc2c1)CN1CCN(c2ccc(Cc3ccc(F)cc3)cc2)CC1 (configuration not stated)
Reply text: 70

Inquiry: State, in one line, measured activity at 10 min, 10 µM of Cl.Cl.Cl.Fc1ccc(Cc2ccc(N3CCN(CC(F)(F)COc4ccc5ncccc5c4)CC3)cc2)cc1
Reply text: 93

Inquiry: State, in one line, measured activity at 10 min, 10 µM of O=C1CCc2cc(OCC(O)CN3CCN(c4ccc(Cc5ccc(F)cc5)cc4)CC3)ccc2N1 (configuration not stated)
Reply text: 88

Inquiry: State, in one line, measured activity at 10 min, 10 µM of OC(COc1ccc2[nH]ccc2c1)CN1CCN(c2ccc(Cc3ccc(F)cc3)cc2)CC1 (configuration not stated)
Reply text: 59

Inquiry: State, in one line, measured activity at 10 min, 10 µM of Cc1cc(OCC(F)CN2CCN(c3ccc(Cc4ccc(F)cc4)cc3)CC2)cc(C)n1.Cl.Cl.Cl (configuration not stated)
Reply text: 67

Inquiry: State, in one line, measured activity at 10 min, 10 µM of Cc1cc(S(N)(=O)=O)ccc1OCC(F)CN1CCN(c2ccc(Cc3ccc(F)cc3)cc2)CC1 (configuration not stated)
Reply text: 108

Inquiry: State, in one line, measured activity at 10 min, 10 µM of NC(=O)c1ccc(OCC(F)CN2CCN(c3ccc(Cc4ccc(F)cc4)cc3)CC2)cc1 (configuration not stated)
Reply text: 76

Inquiry: State, in one line, measured activity at 10 min, 10 µM of Cl.Cl.Cl.Fc1ccc(Cc2ccc(N3CCN(CC(F)COc4ccc5ncccc5c4)CC3)cc2)cc1 (configuration not stated)
Reply text: 82

Inquiry: State, in one line, measured activity at 10 min, 10 µM of Cc1cc(S(N)(=O)=O)c(C)c(C)c1OCC(F)CN1CCN(c2ccc(Cc3ccc(F)cc3)cc2)CC1 (configuration not stated)
Reply text: 92

Inquiry: State, in one line, measured activity at 10 min, 10 µM of Cc1cc(OCC(F)CN2CCN(c3ccc(Cc4ccc(F)cc4)cc3)CC2)c(C)c(C)c1N.Cl.Cl.Cl (configuration not stated)
Reply text: 75

Sourced from ChEMBL document CHEMBL4219268
